pIC50 reference
Biological target: UDP-galactopyranose mutase (Mycobacterium tuberculosis, UniProt P9WIQ1)
Sequence (P9WIQ1 whole entry): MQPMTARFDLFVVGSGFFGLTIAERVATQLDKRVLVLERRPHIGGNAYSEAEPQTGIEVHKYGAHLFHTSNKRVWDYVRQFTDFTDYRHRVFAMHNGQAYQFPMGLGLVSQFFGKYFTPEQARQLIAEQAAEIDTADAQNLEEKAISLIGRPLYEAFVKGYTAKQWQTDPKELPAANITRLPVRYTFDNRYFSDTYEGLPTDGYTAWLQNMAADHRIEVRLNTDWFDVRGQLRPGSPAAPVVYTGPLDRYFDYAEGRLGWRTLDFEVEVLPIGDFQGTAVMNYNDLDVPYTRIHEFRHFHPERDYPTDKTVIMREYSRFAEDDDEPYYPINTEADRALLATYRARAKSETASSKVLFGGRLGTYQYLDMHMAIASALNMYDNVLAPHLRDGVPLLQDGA
pIC50 is defined as minus the log10 of a concentration measured in mol/L.

compound	value observed
O=C(Nc1ccccc1)c1ccc([N+](=O)[O-])o1	4.02
COc1cccc2sc(NC(=O)c3ccc([N+](=O)[O-])o3)nc12	3.68
O=C(Nc1cccc(Cl)c1)c1ccc([N+](=O)[O-])o1	4.25
COc1cccc(CNC(=O)c2ccc([N+](=O)[O-])o2)c1OC	3.33
O=C(Nc1ccncc1)c1ccc([N+](=O)[O-])o1	3.73

Quickly give me recorded pIC50 for O=C(Nc1cccc(Br)c1)c1ccc([N+](=O)[O-])o1 4.45

====

Test: The protein binding is expressed as percent bound as determined by VolSurf
Type: ADME
Details: read-out: Protein binding (converted)
Kindly note that classification relies on fraction unbound with these boundaries: low value = under 0.3, medium value = from 0.3 up to 0.4, high value = 0.4 and over

Examples with answers:
molecule	answer label
C[C@@H](NC(=O)c1ccc([N+](=O)[O-])o1)c1ccccc1	low value
O=C(Nc1ccncc1)c1ccc([N+](=O)[O-])o1	high value
COc1cccc(CNC(=O)c2ccc([N+](=O)[O-])o2)c1OC	medium value

# bin lookup: classify COc1cc(NC(=O)c2ccc([N+](=O)[O-])o2)ncn1 by its fraction unbound high value

Which category fits this record: O=C(Nc1ccccn1)c1ccc([N+](=O)[O-])o1 high value

Class for O=C(Nc1cccnc1)c1ccc([N+](=O)[O-])o1 ? high value

Field: class (fraction unbound) — entry: O=C(NCc1ccccn1)c1ccc([N+](=O)[O-])o1 high value

Each molecule maps to one class by fraction unbound. Which class for O=C(Nc1ccccc1)c1ccc([N+](=O)[O-])o1 ? medium value

Please report the category associated with COc1ccc(CNC(=O)c2ccc([N+](=O)[O-])o2)cc1 , nothing else. medium value

State the band of O=C(NCCc1ccccc1)c1ccc([N+](=O)[O-])o1 low value

Which band does O=C(Nc1cc[nH]n1)c1ccc([N+](=O)[O-])o1 fall in? high value

Band assignment needed for O=C(Nc1cccc(OCc2ccccc2)c1)c1ccc([N+](=O)[O-])o1 please. low value

Category lookup for the molecule O=C(NCc1ccco1)c1ccc([N+](=O)[O-])o1 medium value

Using the reported fraction unbound, which band applies to N#Cc1ccc(NC(=O)c2ccc([N+](=O)[O-])o2)cc1 ? low value

====

Biological target: UniProt P9WIQ1
IC50 less than 200 µM is Satisfied; IC50 greater than or equal to 200 µM is Not satisfied.

compound	system	answer label
COc1ccc(CNC(=O)c2ccc([N+](=O)[O-])o2)cc1OC	UniProt P9WIQ1	Satisfied
O=C(NC1CCCc2ccccc21)c1ccc([N+](=O)[O-])o1 (stereo unspecified)	UniProt P9WIQ1	Satisfied
O=C(NCc1ccccn1)c1ccc([N+](=O)[O-])o1	UniProt P9WIQ1	Not satisfied
O=C(NC1CCCCC1)c1ccc([N+](=O)[O-])o1	UniProt P9WIQ1	Not satisfied
COc1ccc(NC(=O)c2ccc([N+](=O)[O-])o2)cc1	UniProt P9WIQ1	Satisfied
COc1ccc(CNC(=O)c2ccc([N+](=O)[O-])o2)cc1	UniProt P9WIQ1	Not satisfied

is_below(IC50, 200 µM) for O=C(Nc1cnccn1)c1ccc([N+](=O)[O-])o1 ? Not satisfied

Given C[C@@H](NC(=O)c1ccc([N+](=O)[O-])o1)c1ccccc1 , is recorded IC50 strictly lower than 200 µM? Satisfied
